- Tested on: Saccharomyces cerevisiae
- assay-summary: protein stability index of tFT-peptide fusion (C-terminal peptide) (PSI (0-1 scale)); higher = more stable (slower turnover);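 also: PSI is a weighted mean of sequencing reads over stability bins, variants kept only with over 10 reads, mCherry proximal and sfGFP distal, peptide attached via GGGS linker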
- condition: genetic background: wild type; temperature: 30 C
measurement-type: protein stability index
# answer = number (no unit)

State its protein stability index on Saccharomyces cerevisiae: LPHLFPSTPPAS 0.723

State its protein stability index on Saccharomyces cerevisiae: GGAFPGPGFGLD 0.68

State its protein stability index on Saccharomyces cerevisiae: THHTPKILNTKR 0.708

State its protein stability index on Saccharomyces cerevisiae: TKQKKIEDEEII 0.631

State its protein stability index on Saccharomyces cerevisiae: KGQGAYEGVGKE 0.663

State its protein stability index on Saccharomyces cerevisiae: CPFPPPPCPPPL 0.665

State its protein stability index on Saccharomyces cerevisiae: RGEGGRALGVGR 0.688

State its protein stability index on Saccharomyces cerevisiae: FALAVPLDPWSS 0.737

State its protein stability index on Saccharomyces cerevisiae: VAFLYCHFFYCI 0.415

State its protein stability index on Saccharomyces cerevisiae: PAGVDQPYIPGE 0.6

###

- System: Saccharomyces cerevisiae
- assay-summary: protein stability index of tFT-peptide fusion (C-terminal peptide) (PSI (0-1 scale)); higher = more stable (slower turnover)
- condition: genetic background: wild type; temperature: 37 C
Answer each item with its documented protein stability index.
# answer = number (no unit)

Entry under review: TKKGQTRPSRTD . Reported protein stability index? 0.696

Entry under review: NTNITHHSVKLR . Reported protein stability index? 0.689

Entry under review: IPRSCRIRLAVL . Reported protein stability index? 0.359

Entry under review: VWWWGGVGWLMV . Reported protein stability index? 0.544

Entry under review: GHHLRVRVILTA . Reported protein stability index? 0.297

Entry under review: CFVRCFVSIRLF . Reported protein stability index? 0.146

Entry under review: VVFLFVEAVVGV . Reported protein stability index? 0.0933

Entry under review: CSFHFSLFFLRV . Reported protein stability index? 0.422

Entry under review: LFFFRLFVFWVF . Reported protein stability index? 0.251

Entry under review: KRMVEKNKKKIN . Reported protein stability index? 0.368

Entry under review: LVVYLSCVACIN . Reported protein stability index? 0.0515

Entry under review: LVFAFFLLSFFI . Reported protein stability index? 0.541

Entry under review: YNKIRNNEKKMT . Reported protein stability index? 0.457

Entry under review: YCSIQIQLVYGI . Reported protein stability index? 0.396

Entry under review: DVPLFLPLPVSV . Reported protein stability index? 0.39

Entry under review: FILFSEMFASSV . Reported protein stability index? 0.137

Entry under review: YSIHYLRFFSLF . Reported protein stability index? 0.0998

Entry under review: SFLRVRSLISCS . Reported protein stability index? 0.348

Entry under review: GDFYCSSVVLVV . Reported protein stability index? 0.445

###

Answer each item with its documented protein stability index.
- System: Saccharomyces cerevisiae
- assay-summary: protein stability index of tFT-peptide fusion (C-terminal peptide) (PSI (0-1 scale)); higher = more stable (slower turnover)
- condition: genetic background: wild type; temperature: 37 C
# answer = number (no unit)

Entry under review: IRACGCSFLWVC . Reported protein stability index? 0.118

Entry under review: WSWCLDVVCFTS . Reported protein stability index? 0.531

Entry under review: CILYLSWIIFRA . Reported protein stability index? 0.334

Entry under review: WQGLSGSPILVI . Reported protein stability index? 0.334

Entry under review: VGDFFVLVGFVA . Reported protein stability index? 0.522

Entry under review: LLCLCSLPVFAS . Reported protein stability index? 0.368

Entry under review: GFLWFCGVPVGW . Reported protein stability index? 0.707

Entry under review: FGGFYGRRVLII . Reported protein stability index? 0.437

Entry under review: FALFCFVIFMSR . Reported protein stability index? 0.381

Entry under review: FFGFYLKFVWCG . Reported protein stability index? 0.258

Entry under review: VCCYILFFLFPV . Reported protein stability index? 0.506

Entry under review: PAPANRPTPRPV . Reported protein stability index? 0.752

Entry under review: FVRCFWPFVFVF . Reported protein stability index? 0.14

Entry under review: VSCYYVFLIPFW . Reported protein stability index? 0.56

Entry under review: TLKRCFRWCRTT . Reported protein stability index? 0.157

Entry under review: FLCLLSLFFLDF . Reported protein stability index? 0.575

Entry under review: KLKDLTRIKIFR . Reported protein stability index? 0.701

Entry under review: FVLLTFLFFWQF . Reported protein stability index? 0.441

Entry under review: STLPACNCLKLL . Reported protein stability index? 0.565
